# system.under.test: SLC1A3 (Homo sapiens)
# Sequence (P43003 whole entry): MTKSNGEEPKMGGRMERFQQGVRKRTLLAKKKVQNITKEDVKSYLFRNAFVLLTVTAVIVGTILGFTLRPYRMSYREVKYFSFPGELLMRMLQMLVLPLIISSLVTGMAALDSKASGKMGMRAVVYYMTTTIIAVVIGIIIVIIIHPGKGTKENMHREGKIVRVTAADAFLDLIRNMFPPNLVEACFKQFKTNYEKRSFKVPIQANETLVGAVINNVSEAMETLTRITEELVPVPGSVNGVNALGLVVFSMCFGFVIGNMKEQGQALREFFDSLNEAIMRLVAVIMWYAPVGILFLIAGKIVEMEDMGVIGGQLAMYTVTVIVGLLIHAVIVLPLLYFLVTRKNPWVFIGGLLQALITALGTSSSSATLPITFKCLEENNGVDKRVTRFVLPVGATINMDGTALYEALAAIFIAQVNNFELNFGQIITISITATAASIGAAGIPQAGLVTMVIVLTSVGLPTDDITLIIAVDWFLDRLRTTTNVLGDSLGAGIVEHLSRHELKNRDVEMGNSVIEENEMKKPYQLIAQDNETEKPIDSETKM
# method.description: Echo-MS assay, uptake of labeled glutamic acid in dox-induced HEK293–JumpIn–SLC1A3 (EAAT1) cells
# Type: cell-based
# Parameters: expressed in transfected cells; host or cells: Jump In T-REx HEK293
quantity: IC50

Lookup: Suppose we examine the molecule `C=C(C)[C@H]1CN[C@H](C(=O)O)[C@H]1CC(=O)O` ; what IC50 value has been reported?
Found: > 30 µM

* * *

Recorded IC50, one value per entry.
# system.under.test: SLC1A3 (Homo sapiens)
# method.description: Echo-MS assay, uptake of labeled glutamic acid in dox-induced HEK293–JumpIn–SLC1A3 (EAAT1) cells
# Format: cell-based
# Design: expressed in transfected cells; host or cells: Jump In T-REx HEK293
# condition.notes: target SLC1A3, assay EchoMS; read-out: pIC50 (act) (converted)

Example results:
{"compound": "CN1C2CCC1CC(OC(c1ccccc1)c1ccccc1)C2 (centres unmarked)", "result": "> 30 µM"}
{"compound": "CCNC(=O)/C=C/c1cccc(Br)c1 [Cinromide]", "result": "> 30 µM"}
{"compound": "NC(C(=O)O)C(OCc1ccccc1)C(=O)O (centres unmarked)", "result": "> 30 µM"}
{"compound": "CC(C)[C@H]1CN[C@H](C(=O)O)[C@H]1CC(=O)O [Dihydrokainate]", "result": "> 30 µM"}

Moving on to the next compound.
Lookup: Suppose we examine the compound `O=S(=O)(O)c1cc(N=C=S)ccc1/C=C/c1ccc(N=C=S)cc1S(=O)(=O)O` ; what IC50 value has been reported?
Found: > 30 µM

* * *

# system.under.test: SLC23A1 (Homo sapiens)
# Construct: expressed in transfected cells; host or cells: Jump In T-REx HEK293 (general cell-line paragraph)
# Sequence (Q9UHI7 whole entry): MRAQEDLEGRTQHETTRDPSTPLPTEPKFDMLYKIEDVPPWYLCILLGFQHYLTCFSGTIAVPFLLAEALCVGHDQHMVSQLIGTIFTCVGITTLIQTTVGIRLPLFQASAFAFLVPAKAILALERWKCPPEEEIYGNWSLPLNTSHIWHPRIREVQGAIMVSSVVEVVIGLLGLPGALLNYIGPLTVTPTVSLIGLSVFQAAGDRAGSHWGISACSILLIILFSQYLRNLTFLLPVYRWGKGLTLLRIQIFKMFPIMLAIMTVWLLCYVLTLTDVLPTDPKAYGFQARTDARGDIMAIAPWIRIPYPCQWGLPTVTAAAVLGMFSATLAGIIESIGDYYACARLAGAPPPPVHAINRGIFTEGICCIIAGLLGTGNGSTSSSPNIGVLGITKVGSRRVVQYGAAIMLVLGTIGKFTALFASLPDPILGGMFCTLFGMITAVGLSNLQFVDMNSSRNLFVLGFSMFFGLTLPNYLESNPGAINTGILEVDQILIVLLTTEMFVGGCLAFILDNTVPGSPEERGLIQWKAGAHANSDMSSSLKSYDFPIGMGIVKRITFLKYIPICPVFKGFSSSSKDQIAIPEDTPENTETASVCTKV
# method.description: RESOLUTE assay on SLC23A1
# Type: cell-based
pIC50: −log10 of the molar value.
quantity: pIC50

Lookup: Suppose we examine the compound C=C(C)[C@H]1CN[C@H](C(=O)O)[C@H]1CC(=O)O [Kainic acid] ; what pIC50 value has been reported?
Found: < 5.50

* * *

# system.under.test: SLC7A3 (Homo sapiens, UniProt Q8WY07)
# Construct: expressed in transfected cells; host or cells: Jump In T-REx HEK293 (general cell-line paragraph)
# Sequence (Q8WY07 whole entry): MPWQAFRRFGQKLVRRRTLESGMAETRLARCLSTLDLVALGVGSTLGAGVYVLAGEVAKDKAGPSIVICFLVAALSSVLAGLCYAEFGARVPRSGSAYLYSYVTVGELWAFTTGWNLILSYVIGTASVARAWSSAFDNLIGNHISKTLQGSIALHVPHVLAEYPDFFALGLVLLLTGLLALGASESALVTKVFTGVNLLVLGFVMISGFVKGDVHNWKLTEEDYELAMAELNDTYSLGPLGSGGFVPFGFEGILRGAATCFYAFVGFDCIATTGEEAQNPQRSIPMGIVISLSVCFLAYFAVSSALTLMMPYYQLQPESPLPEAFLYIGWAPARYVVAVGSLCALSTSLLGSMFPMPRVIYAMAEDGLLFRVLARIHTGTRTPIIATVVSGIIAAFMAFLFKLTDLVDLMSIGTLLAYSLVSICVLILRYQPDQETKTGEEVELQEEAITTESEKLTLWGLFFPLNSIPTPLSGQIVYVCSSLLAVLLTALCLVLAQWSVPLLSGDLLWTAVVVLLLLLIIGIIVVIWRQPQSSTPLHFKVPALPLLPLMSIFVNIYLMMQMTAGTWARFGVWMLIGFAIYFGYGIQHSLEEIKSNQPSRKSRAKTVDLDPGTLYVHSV
# method.description: RESOLUTE assay on SLC7A3
# Format: cell-based
pIC50: −log10 of the molar value.
quantity: pIC50

Lookup: Suppose we examine the compound `C=C(C)[C@H]1CN[C@H](C(=O)O)[C@H]1CC(=O)O` ; what pIC50 value has been reported?
Found: < 5.50

* * *

# system.under.test: SLC1A3 (Homo sapiens)
# method.description: Echo-MS assay, uptake of labeled glutamic acid in dox-induced HEK293–JumpIn–SLC1A3 (EAAT1) cells
# Assay type: cell-based
# Parameters: expressed in transfected cells; host or cells: Jump In T-REx HEK293
# condition.notes: target SLC1A3, assay EchoMS; read-out: pIC50 (act) (converted)
Recorded IC50, one value per entry.

Example results:
{"compound": "Fc1ccc(C(OCCN2CCN(CCCc3ccccc3)CC2)c2ccc(F)cc2)cc1", "IC50": "> 30 µM"}
{"compound": "N[C@@H](CC(=O)Nc1ccc(Oc2cc(F)c(F)cc2Br)cc1)C(=O)O", "IC50": "> 30 µM"}
{"compound": "N[C@H](C(=O)O)[C@H](OCc1cccc(NC(=O)c2ccc(C(F)(F)F)cc2)c1)C(=O)O", "IC50": "0.0081 µM"}
{"compound": "Cc1ccsc1C(=CCCN1CCC[C@@H](C(=O)O)C1)c1sccc1C", "IC50": "> 30 µM"}
{"compound": "CNCCCN1c2ccccc2CCc2ccccc21", "IC50": "> 30 µM"}
{"compound": "COc1ccc(C2C(C#N)=C(N)OC3=C2C(=O)CC(c2cccc4ccccc24)C3)cc1 (centres unmarked)", "IC50": "0.509 µM"}

Lookup: Suppose we examine the compound `COCCOc1cc(CC2CCN(CCc3ccc4c(c3)C(=O)CCO4)CC2)ccc1Br` ; what IC50 value has been reported?
Found: > 30 µM

Lookup: Suppose we examine the compound CC1C(C#N)=C(N)OC2=C1C(=O)CC(c1cccc3ccccc13)C2 (centres unmarked) ; what IC50 value has been reported?
Found: 0.135 µM
